Source: paper PMC9482650

- study.system: GORASP2, Q9H8Y8
- experiment.summary: holdup assay
- Set-up: key: below the threshold = too weak to quantify, mostly under pKd 3.1 to 4
- cond: plain residues with an end cap or a label only (N-terminal biotin on a linker: ado-ado)
The reader will find reported pKd values listed item by item below.
experimental.endpoint: pKd

>  <binder>
VYPNAKVELV [PDLIM4_iso2, P50479;P50479-1]

>  <experimental.endpoint>
pKd

>  <value.reported>
4.87

$$$$
>  <binder>
AKPSRISTVV [IQSEC2, Q5JU85]

>  <experimental.endpoint>
pKd

>  <value.reported>
4.47

$$$$
>  <binder>
DDEDRLVIEI [ZNF831, Q5JPB2]

>  <experimental.endpoint>
pKd

>  <value.reported>
4.72

$$$$
>  <binder>
VNKSKLLTDV [KCNA1, Q09470]

>  <experimental.endpoint>
pKd

>  <value.reported>
3.91

$$$$
>  <binder>
QGLAERISVL [PRKD2, Q9BZL6]

>  <experimental.endpoint>
pKd

>  <value.reported>
4.16

$$$$
>  <binder>
SAKVRTVTSV [RASL11B, Q9BPW5]

>  <experimental.endpoint>
pKd

>  <value.reported>
4.56

$$$$
>  <binder>
PPYRHRNTVV [ERBB4, Q15303]

>  <experimental.endpoint>
pKd

>  <value.reported>
4.26

$$$$
>  <binder>
QHKTQLQTLI [BPIFA2, Q96DR5]

>  <experimental.endpoint>
pKd

>  <value.reported>
3.77

$$$$
